Subject Of Test: cynomolgus IL-36R on BaF/3 cells (cynomolgus)
Assay Explanation: cell-based or functional assay
Below, each of the binders is paired with its reported IC90 pNFκB, trun-IL-36g, BaF/3 cynomolgus IL-36R cells value.

Look over these answered cases.
Binder	Readout Value
antibody 67E7 (antibody, V domains shown) VH: EVQLQQSGAEFVRPGASVKFSCTASGFNIKDDYIHWVRQRPEQGLEWVGRIDPANGNTKYAPKFQDKATITADTSSNTAYLQLSSLTSEDTAVYYCAKSFPNNYYSYDDAFAYWGQGTLVTVSA VL: DIQMTQSPASQSASLGESVTFTCLASQTIGTWLGWYQQKPGKSPQLLIYRSTTLADGVPSRFSGSGSGTKFSFKISSLQAADFASYYCQQLYSAPYTFGGGTKLEIR	> 333 nM
Mouse 33D10 (antibody 33D10) (antibody, V domains shown) VH: QVQLQQSGTELLKPGASVKLSCKASGNTVTSYWMHWVKQRPGQGLEWIGEILPSTGRTNYNENFKGKAMLTVDKSSSTAYMQLSSLASEDSAVYYCTIVYFGNPWFAYWGQGTLVTVSA VL: QIVLTQSPAIMSASLGERVTMTCTASSSVSSSYLHWYQKKPGSSPKLWVYSTSNLASGVPVRFSGSGSGTSYSLTISSMEAEDAATYYCHQHHRSPVTFGSGTKLEMK	> 333 nM

Switching to the query record.
Challenge: Fill in: IC90 pNFκB, trun-IL-36g, BaF/3 cynomolgus IL-36R cells of antibody 89A12 (antibody, V domains shown) VH: EVQLQQSGAELVRPGASVRLSCTASGFNIKDDYIHWVRQRPKQGLEWLGRIDPANGNTKYDPRFQDKATITADTSSNTAYLHLSSLTSEDTAVYYCAKSFPDNYYSYDDAFAYWGQGTLVTVSA VL: DIQMTQSPASQSASLGESVTFSCLASQTIGTWLGWYQQKPGKSPQLLIYRATSLADGVPSRFSGSGSGTNFSFKISSLQAEDLASYYCQQLYSGPYTFGGGTKLEIR is ___
Response given: > 333 nM
